biological target: Jak2 (UniProt O60674); assay: phosphorylation enrichment, bacterial display (enrichment ratio); higher = better substrate or ligand; peptides without Tyr show the background
Sequence (O60674 whole entry, looked up): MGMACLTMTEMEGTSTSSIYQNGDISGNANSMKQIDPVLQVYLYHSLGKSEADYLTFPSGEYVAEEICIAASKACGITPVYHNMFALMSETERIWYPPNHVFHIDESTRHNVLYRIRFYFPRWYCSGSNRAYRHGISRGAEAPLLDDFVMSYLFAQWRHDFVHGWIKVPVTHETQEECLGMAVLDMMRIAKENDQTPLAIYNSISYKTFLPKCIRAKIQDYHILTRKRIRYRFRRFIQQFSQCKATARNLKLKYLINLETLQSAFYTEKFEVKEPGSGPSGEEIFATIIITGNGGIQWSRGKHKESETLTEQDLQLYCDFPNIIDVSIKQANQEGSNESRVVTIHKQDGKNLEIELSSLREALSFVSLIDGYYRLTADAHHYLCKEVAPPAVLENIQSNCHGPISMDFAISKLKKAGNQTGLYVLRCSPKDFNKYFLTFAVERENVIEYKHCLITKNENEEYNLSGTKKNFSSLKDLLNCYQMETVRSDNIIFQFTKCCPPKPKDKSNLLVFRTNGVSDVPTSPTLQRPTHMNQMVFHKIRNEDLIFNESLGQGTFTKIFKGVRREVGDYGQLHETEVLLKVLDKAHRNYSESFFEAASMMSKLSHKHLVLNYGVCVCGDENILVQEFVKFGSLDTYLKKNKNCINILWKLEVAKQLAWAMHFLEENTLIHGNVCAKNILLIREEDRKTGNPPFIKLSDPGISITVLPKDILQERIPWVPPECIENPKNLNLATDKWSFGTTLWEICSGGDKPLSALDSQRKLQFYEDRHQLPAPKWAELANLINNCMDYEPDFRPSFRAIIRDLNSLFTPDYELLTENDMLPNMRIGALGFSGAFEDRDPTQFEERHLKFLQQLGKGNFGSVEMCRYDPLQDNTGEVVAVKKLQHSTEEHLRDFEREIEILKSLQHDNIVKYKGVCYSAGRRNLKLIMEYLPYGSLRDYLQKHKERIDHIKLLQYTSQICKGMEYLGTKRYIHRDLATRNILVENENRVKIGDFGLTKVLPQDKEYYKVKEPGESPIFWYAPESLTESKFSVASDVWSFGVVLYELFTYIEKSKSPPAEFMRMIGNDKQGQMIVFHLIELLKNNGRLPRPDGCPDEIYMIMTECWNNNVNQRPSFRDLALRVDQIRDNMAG
Measured Endpoint: phosphorylation enrichment
Answer with a number only.

Completed entries (count: 2):
{"Seq": "MPLDQYSPSFP [FGFR1_Y776]", "phosphorylation enrichment": 0.917}
{"Seq": "RGGWAYVLHPT [TRMT61A_Y67_V66A]", "phosphorylation enrichment": 1.1}

Ask: phosphorylation enrichment of RAMRRYLERGE [ERBB3_Y680] on Jak2 (UniProt O60674)?
Result: 0.607

Ask: phosphorylation enrichment of GDPTEYFITAI [IGSF22_Y501_S503I_YF] on Jak2 (UniProt O60674)?
Result: 1.31

Ask: phosphorylation enrichment of QNTVDYYDLYG [PTPN11_Y62_G60V] on Jak2 (UniProt O60674)?
Result: 2.63

Ask: phosphorylation enrichment of SAGSSYSISVI [PAX5_Y179_G183V] on Jak2 (UniProt O60674)?
Result: 0.835

Ask: phosphorylation enrichment of LHNLFYQLEAE [PKP2_Y616_S615F] on Jak2 (UniProt O60674)?
Result: 2.4

----------
test system: AncSZ; assay: phosphorylation enrichment, bacterial display (enrichment ratio); higher = better substrate or ligand; peptides without Tyr show the background
Measured Endpoint: phosphorylation enrichment

Completed entries (count: 3):
{"Seq": "RRIHSYRGRLW [VHL_Y112_H115R]", "Tested System": "AncSZ", "phosphorylation enrichment": 0.956}
{"Seq": "FLLRVYSIFSK [SGCE_Y38_T36R]", "Tested System": "AncSZ", "phosphorylation enrichment": 0.886}
{"Seq": "KLIMEYLPYGS [JAK2_Y931]", "Tested System": "AncSZ", "phosphorylation enrichment": 0.989}

Ask: Fill in: phosphorylation enrichment of QGIIIYKAAFF [SLC25A4_Y187_R188K_YF] is ___
Result: 1.5

Ask: Fill in: phosphorylation enrichment of GVFSRHFTTFD [CLCA1_Y661_Y661H_YF] is ___
Result: 1.31

----------
target: c-Src SH2; assay: SH2 binding enrichment of the phosphorylated peptide, bacterial display (enrichment ratio); higher = better substrate or ligand; peptides without Tyr show the background
Measured Endpoint: SH2 binding enrichment
Answer with a number only.

Completed entries (count: 6):
{"Seq": "QEGPEYWDGNT [HLA-B_Y83_R86G]", "Endpoint Result": 0.367}
{"Seq": "EQKKFYNAVKK [SCN5A_Y1495_M1498V_YF]", "Endpoint Result": 0.648}
{"Seq": "CTTNHYNYMCN [TP53_Y234_I232N]", "Endpoint Result": 11}
{"Seq": "FSLPAFMDRRD [COX4I1_Y38_Y38F]", "Endpoint Result": 0.639}
{"Seq": "CTTIHYNFLCN [TP53_Y234_M237L_YF]", "Endpoint Result": 2.28}
{"Seq": "GRLVEYDIDEV [SMS_Y134]", "Endpoint Result": 0.845}

Ask: Fill in: SH2 binding enrichment of DKTGEYPVPLI [ACADM_Y73] is ___
Result: 0.399

Ask: Fill in: SH2 binding enrichment of EEQKKYYNAMK [SCN5A_Y1494] is ___
Result: 0.639

Ask: Fill in: SH2 binding enrichment of AASHRYDLGGL [QPRT_Y162] is ___
Result: 0.521

Ask: Fill in: SH2 binding enrichment of ARGTRYRYVSQ [UCN3_Y95] is ___
Result: 0.479

Ask: Fill in: SH2 binding enrichment of ADKSVYLMGLN [MYH7_Y386_A385V] is ___
Result: 0.528

Ask: Fill in: SH2 binding enrichment of KVPELYEIHTE [BCR_Y554_K558T] is ___
Result: 0.525

Ask: Fill in: SH2 binding enrichment of ALTDNYMYVVI [HAGH_Y61_L64V] is ___
Result: 0.607

Ask: Fill in: SH2 binding enrichment of MSRDIYSTDFF [NTRK1_Y676_YF] is ___
Result: 0.512

----------
molecular target: c-Src SH2; test: SH2 binding enrichment of the phosphorylated peptide, bacterial display (enrichment ratio); higher = better substrate or ligand; peptides without Tyr show the background;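 also: peptide library displayed on the E. coli surface as eCPX fusions, selected cells deep-sequenced, score is each peptide's frequency after selection divided by its frequency in the input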
Measured Endpoint: SH2 binding enrichment
Answer with a number only.

Completed entries (count: 7):
{"Seq": "YASALYGQRRS [FGF11_Y162_R163G]", "Tested System": "c-Src SH2", "Endpoint Result": 0.553}
{"Seq": "NDQPDYDSVAS [GIT2_Y392]", "Tested System": "c-Src SH2", "Endpoint Result": 0.658}
{"Seq": "KYACSYTPVKA [FLNB_Y708_T703K]", "Tested System": "c-Src SH2", "Endpoint Result": 1.28}
{"Seq": "VTAALYGCLFE [BTD_Y536_R538C_YF]", "Tested System": "c-Src SH2", "Endpoint Result": 0.52}
{"Seq": "PFRFIYMAVQH [PTPN11_Y515_Q510P_YF]", "Tested System": "c-Src SH2", "Endpoint Result": 0.872}
{"Seq": "RKLVDYNSARH [BIN1_Y150_D151N]", "Tested System": "c-Src SH2", "Endpoint Result": 0.686}
{"Seq": "KLVQLYGVCTK [BTK_Y461]", "Tested System": "c-Src SH2", "Endpoint Result": 0.882}

Ask: Fill in: SH2 binding enrichment of LDYNEYFRDLN [HPRT1_Y198] is ___
Result: 0.645

----------
Readings of phosphorylation enrichment for the listed sequences
biological target: Fes (UniProt P07332); test: phosphorylation enrichment, bacterial display (enrichment ratio); higher = better substrate or ligand; peptides without Tyr show the background
Sequence (P07332 whole entry, looked up): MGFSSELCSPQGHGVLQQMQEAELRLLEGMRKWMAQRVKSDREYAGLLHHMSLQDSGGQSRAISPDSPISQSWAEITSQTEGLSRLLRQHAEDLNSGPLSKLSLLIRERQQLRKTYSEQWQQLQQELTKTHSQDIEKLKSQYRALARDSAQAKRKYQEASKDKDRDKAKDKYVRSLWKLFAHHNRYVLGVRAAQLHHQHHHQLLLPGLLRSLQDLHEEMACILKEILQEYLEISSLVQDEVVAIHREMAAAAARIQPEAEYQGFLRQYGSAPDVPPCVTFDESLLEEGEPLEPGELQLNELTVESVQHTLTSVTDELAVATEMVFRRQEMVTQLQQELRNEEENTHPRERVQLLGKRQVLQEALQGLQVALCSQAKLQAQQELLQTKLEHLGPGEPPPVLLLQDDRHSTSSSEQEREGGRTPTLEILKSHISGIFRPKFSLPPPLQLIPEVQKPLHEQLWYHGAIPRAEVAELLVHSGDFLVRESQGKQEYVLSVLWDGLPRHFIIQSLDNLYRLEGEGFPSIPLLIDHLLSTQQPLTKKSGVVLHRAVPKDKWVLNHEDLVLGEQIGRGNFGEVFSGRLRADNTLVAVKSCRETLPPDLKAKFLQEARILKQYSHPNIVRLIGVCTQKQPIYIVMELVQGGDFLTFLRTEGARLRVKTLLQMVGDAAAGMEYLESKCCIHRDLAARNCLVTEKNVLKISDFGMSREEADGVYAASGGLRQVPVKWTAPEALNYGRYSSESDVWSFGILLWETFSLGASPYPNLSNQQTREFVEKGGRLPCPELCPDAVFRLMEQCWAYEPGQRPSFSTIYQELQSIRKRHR
Answer with a number only.

{"Seq": "PELIDYGKLWK [ACTN1_Y193_R197W]", "Tested System": "Fes (UniProt P07332)", "Endpoint Result": 1.26}
{"Seq": "KDFETYQSFQN [CTNND2_Y1157_P1159S_YF]", "Tested System": "Fes (UniProt P07332)", "Endpoint Result": 0.984}
{"Seq": "LKLKAYRFSIS [LCT_Y974_V971L]", "Tested System": "Fes (UniProt P07332)", "Endpoint Result": 1.96}
{"Seq": "KVMANYVYKAG [MAML2_Y513_M514V]", "Tested System": "Fes (UniProt P07332)", "Endpoint Result": 0.551}
{"Seq": "ANAFIYVVQLP [L1CAM_Y420_YF]", "Tested System": "Fes (UniProt P07332)", "Endpoint Result": 1.32}
{"Seq": "SIIKDYFHRGA [GATM_Y203]", "Tested System": "Fes (UniProt P07332)", "Endpoint Result": 0.679}

Kindly review the next sequence as well.
Ask: Fill in: phosphorylation enrichment of VNKIFYPDFIV [LIG3_Y768_YF] is ___
Result: 1.08

----------
system: c-Src; assay: phosphorylation enrichment, bacterial display (enrichment ratio); higher = better substrate or ligand; peptides without Tyr show the background
Class (required): determined from phosphorylation enrichment; valid ranges are zone 1 (below 0.6), zone 2 (0.6 to below 1), zone 3 (1 or more)

Past entries and their recorded results:
{"Seq": "EVVGRYSGHNA [MLH1_Y183_V185G]", "Group": "zone 1"}
{"Seq": "RREWYYEVIIA [BACE1_Y260_V265A]", "Group": "zone 2"}

Ask: Note: place this sequence into its band. Item: AAVDEYLEFRR [FAM221A_Y17_YF]
Result: zone 3

Ask: Note: place this sequence into its band. Item: LGIDRYHAIVF [NPSR1_Y147_S143G_YF]
Result: zone 3

----------
molecular target: Hck (UniProt P08631); assay: phosphorylation enrichment, bacterial display (enrichment ratio); higher = better substrate or ligand; peptides without Tyr show the background
Sequence (P08631 whole entry, looked up): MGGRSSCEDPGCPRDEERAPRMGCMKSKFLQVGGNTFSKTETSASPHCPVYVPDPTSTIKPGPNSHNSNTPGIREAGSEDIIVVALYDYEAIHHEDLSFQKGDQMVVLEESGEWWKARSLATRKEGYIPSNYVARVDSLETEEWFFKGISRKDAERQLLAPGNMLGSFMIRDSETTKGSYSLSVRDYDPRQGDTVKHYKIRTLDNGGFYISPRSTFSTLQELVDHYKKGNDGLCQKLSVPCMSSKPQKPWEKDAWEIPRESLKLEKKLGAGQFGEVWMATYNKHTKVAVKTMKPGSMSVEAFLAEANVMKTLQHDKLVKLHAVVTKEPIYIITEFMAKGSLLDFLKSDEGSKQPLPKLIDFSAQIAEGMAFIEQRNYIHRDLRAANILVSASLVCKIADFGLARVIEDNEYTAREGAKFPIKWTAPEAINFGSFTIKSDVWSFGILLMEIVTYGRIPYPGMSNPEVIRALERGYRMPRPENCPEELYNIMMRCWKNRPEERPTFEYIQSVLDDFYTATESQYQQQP
Measured Endpoint: phosphorylation enrichment
Answer with a number only.

Completed entries (count: 5):
{"Seq": "HEGKIYEFNQV [ZNF665_Y162_YF]", "phosphorylation enrichment": 1.64}
{"Seq": "LYNQDYPIHCV [GATM_Y227_S231C]", "phosphorylation enrichment": 0.767}
{"Seq": "SVCPDYDLCSI [SQSTM1_Y148_V153I]", "phosphorylation enrichment": 0.599}
{"Seq": "LEFNEYFRDLN [HPRT1_Y198_D194E_YF]", "phosphorylation enrichment": 0.828}
{"Seq": "SMAKYYASEIA [ACADSB_Y373]", "phosphorylation enrichment": 0.473}

Ask: Fill in: phosphorylation enrichment of EVVGRYSGHNA [MLH1_Y183_V185G] is ___
Result: 0.403

Ask: Fill in: phosphorylation enrichment of GFRVCYTPDSR [PTPRF_Y451_Y450C_YF] is ___
Result: 0.507
